protocolDetails: logP determination by retention times (calibration with alkan-2-ones)
experimentalParameters: logP, * HPLC reversed-phase C18, 40° C., mobile phase 0.1% aqueous formic acid and acetonitrile, linear gradient 10% to 95% acetonitrile
Give fulfilled when the value for chromatographic logP is at least 2. Give not fulfilled when it is less.

Cc1nc(C2CCCCC2)sc1-c1ccnc(Nc2ccc(N(C)C)cc2)n1 [Example 553] | fulfilled
CC(=O)c1cccc(Nc2nccc(-c3sc(-c4cccnc4)nc3C)n2)c1 [Example 734] | fulfilled
COc1cc(Nc2nccc(-c3cnc(-c4ccccc4)s3)n2)cc(OC)c1OC [Example 786] | fulfilled
COCc1nc(C)c(-c2ccnc(Nc3ccc(O)cc3)n2)s1 [Example 763] | not fulfilled
CCCc1nc(C)c(-c2ccnc(Nc3cc(OC)c(OC)c(OC)c3)n2)s1 [Example 768] | fulfilled
COCC(C)Nc1nc(C)c(-c2ccnc(Nc3cccc(NC(C)=O)c3)n2)s1 (stereo not shown) [Example 569] | not fulfilled
Cc1nc(C)c(-c2ccnc(Nc3cccc(N(C)C)c3)n2)s1 [Example 551] | not fulfilled
COCCNc1nc(C)c(-c2ccnc(Nc3ccc(N(C)C)c(Cl)c3)n2)s1 [Example 805] | not fulfilled
CCc1nc(C)c(-c2ccnc(Nc3cncc(C)c3)n2)s1 [Example 747] | not fulfilled
Cc1nc(C(C)C)sc1-c1ccnc(Nc2cccc(Cl)c2)n1 [Example 425] | fulfilled
COC(=O)Nc1ccc(Nc2nccc(-c3sc(C)nc3C(F)(F)F)n2)cc1 [Example 693] | fulfilled
Cc1nc(N2CCOCC2)sc1-c1ccnc(Nc2cccc(Cl)c2)n1 [Example 745] | fulfilled
Clc1ccc(-c2ncc(-c3ccnc(Nc4ccccc4)n3)s2)cc1 [Example 793] | fulfilled
COCCNc1nc(C)c(-c2ccnc(Nc3cccc(Cl)c3)n2)s1 [Example 680] | fulfilled
COCCNc1nc(C)c(-c2ccnc(Nc3ccc(OC)nc3)n2)s1 [Example 784] | not fulfilled
COCc1nc(C)c(-c2ccnc(Nc3ccc(NC(C)=O)cc3)n2)s1 [Example 544] | not fulfilled
Cc1nc(C2CC2)sc1-c1ccnc(Nc2cccc(CN)c2)n1 [Example 537] | not fulfilled
COc1cc(Nc2nccc(-c3cnc(-c4ccc(Cl)cc4)s3)n2)cc(OC)c1OC [Example 792] | fulfilled
Cc1nc(C(F)F)c(-c2ccnc(Nc3cccc(Cl)c3)n2)s1 [Example 757] | not fulfilled
Cc1nc(C2CC2)sc1-c1ccnc(Nc2cccc(N(C)C)c2)n1 [Example 554] | fulfilled
CCc1nc(C)c(-c2ccnc(Nc3ccc(Cl)cc3)n2)s1 [Example 463] | fulfilled
CCOC(=O)Nc1ccc(Nc2nccc(-c3sc(C(C)C)nc3C)n2)cc1 [Example 796] | fulfilled
COCCNc1nc(C)c(-c2ccnc(Nc3ccc(C#N)cc3)n2)s1 [Example 807] | not fulfilled
COCc1nc(C)c(-c2ccnc(Nc3cccc(Cl)c3)n2)s1 [Example 432] | fulfilled
CCCc1nc(C)c(-c2ccnc(Nc3ccccc3)n2)s1 [Example 766] | fulfilled
CCCc1nc(C)c(-c2ccnc(Nc3cccc(C(C)=O)c3)n2)s1 [Example 767] | fulfilled
CCc1nc(C)c(-c2ccnc(Nc3ccc(N4CCCC4=O)cc3)n2)s1 [Example 748] | fulfilled
COc1cc(N(C(C)=O)c2nccc(-c3sc(C)nc3C)n2)cc(OC)c1OC [Example 667] | not fulfilled
COCC(C)Nc1nc(C)c(-c2ccnc(Nc3ccc(N)cc3)n2)s1 (stereo not shown) [Example 737] | not fulfilled
Cc1nc(C(F)(F)F)c(-c2ccnc(Nc3cccc(Cl)c3)n2)s1 [Example 433] | fulfilled
COCCNc1nc(C)c(-c2ccnc(Nc3ccccc3)n2)s1 [Example 678] | not fulfilled
CCc1nc(C)c(-c2ccnc(Nc3ccc(CNC(=O)OC(C)(C)C)cc3)n2)s1 [Example 632] | fulfilled
CCc1nc(C)c(-c2ccnc(Nc3ccc(C(C)=O)cc3)n2)s1 [Example 717] | fulfilled
COc1ccc(Nc2nccc(-c3sc(C)nc3C)n2)cc1 [Example 788] | fulfilled
Cc1nc(C(F)F)c(-c2ccnc(Nc3ccccc3)n2)s1 [Example 710] | fulfilled
Cc1nc(C(F)(F)F)c(-c2ccnc(Nc3ccc(O)cc3)n2)s1 [Example 696] | fulfilled
